The origin of these recorded values is paper PMC8497992.

Overview of recorded pKd for various binders
# Assay target: SAMHD1 HD domain R366H (UniProt Q9Y3Z3 114-626, R366H)
# Sequence (Q9Y3Z3 114-626 R366H): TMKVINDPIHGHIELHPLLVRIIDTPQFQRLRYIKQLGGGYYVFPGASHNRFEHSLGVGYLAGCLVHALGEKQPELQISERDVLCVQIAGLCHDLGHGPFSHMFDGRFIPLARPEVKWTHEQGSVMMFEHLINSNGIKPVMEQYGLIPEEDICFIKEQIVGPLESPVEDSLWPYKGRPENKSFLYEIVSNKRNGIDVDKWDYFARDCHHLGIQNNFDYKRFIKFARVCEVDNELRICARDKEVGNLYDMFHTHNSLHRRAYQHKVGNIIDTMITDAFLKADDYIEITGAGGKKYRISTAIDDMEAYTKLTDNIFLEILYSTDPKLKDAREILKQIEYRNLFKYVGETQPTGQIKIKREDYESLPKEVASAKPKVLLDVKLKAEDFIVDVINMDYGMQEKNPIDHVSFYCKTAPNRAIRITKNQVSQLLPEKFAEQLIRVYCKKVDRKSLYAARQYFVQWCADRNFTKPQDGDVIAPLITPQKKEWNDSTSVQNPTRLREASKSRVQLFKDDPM
# Measurement notes: fluorescence polarization; 50 mM Tris-HCl pH 8.0, 50 mM KCl, 1 mM EDTA; 50 nM labeled oligonucleotide; temperature not stated
# Test context: protein: recombinant; chain copies: 2; label: 5'-6-carboxyfluorescein; single strand
Remember, pKd is on a log scale: it is -log10 of the molar concentration.

CGCCT (ssDNA, * between all nucleotides (probably phosphorothioate; not defined in the material)) [6FAM-deoxy(C*G*C*C*T)] = 6.22

Now look at this entry.
Asked: Query (binder): CGCCU (ssRNA, * between all nucleotides (probably phosphorothioate; not defined in the material)) [6FAM-ribo(C*G*C*C*U)] ; field requested: pKd
Given back: 5.95
